Overview of reported % viability across a group of compounds:
tested on: HeLa; settings: bulk resorufin, single well, 28.5 h, 10 µM, Bulk resorufin fluorescence
attributeMeasured: % viability

[[record]]
compound = "Cc1cc(-c2cncc(NCCc3c[nH]c4ccccc34)n2)cc(C)c1O"
attributemeasured = "% viability"
reportedresult = "83%"

[[record]]
compound = "Cc1nn(C)c(N2CCNCC2)c1NC(=O)C1CCC1 [CBK045923T]"
attributemeasured = "% viability"
reportedresult = "96.2%"

[[record]]
compound = "COC(=O)c1ccc(CN2CC3CCCN3C[C@@H]2C)cc1 (some centres unmarked)"
attributemeasured = "% viability"
reportedresult = "103%"

[[record]]
compound = "O=C(CSc1nc2ccccc2[nH]1)Nc1ccccc1"
attributemeasured = "% viability"
reportedresult = "91.6%"

[[record]]
compound = "O=C(CN1C(=O)[C@@H]2CCCN2C(=O)c2ccccc21)NCc1ccccc1"
attributemeasured = "% viability"
reportedresult = "89.5%"

[[record]]
compound = "N#CCCN(C(=O)NC(c1ccccc1)c1ccccc1)C1CCCCC1"
attributemeasured = "% viability"
reportedresult = "104%"

[[record]]
compound = "COc1ccc(NC(=O)Nc2ccncc2)c(OC)c1"
attributemeasured = "% viability"
reportedresult = "93.8%"

[[record]]
compound = "C[C@@H]1CN2CCCC2CN1CC1CC=CCC1 (some centres unmarked)"
attributemeasured = "% viability"
reportedresult = "99.9%"

[[record]]
compound = "O=C(c1cnc2[nH][nH]c(=O)c2c1)c1ccccc1O"
attributemeasured = "% viability"
reportedresult = "110%"

[[record]]
compound = "Nc1nn2c(c1Cc1c(Cl)cccc1Cl)OCCCC2"
attributemeasured = "% viability"
reportedresult = "86.2%"

[[record]]
compound = "CCN(Cc1ccccc1)C(=O)NCc1cc(C)on1"
attributemeasured = "% viability"
reportedresult = "92.6%"

[[record]]
compound = "CCCC(=O)NCc1ccc(OC2CCNCC2)cc1 [CBK024489T]"
attributemeasured = "% viability"
reportedresult = "112%"

[[record]]
compound = "CCCCn1cc(CN2CC3CCCN3C[C@H]2C)c(C)n1 (some centres unmarked)"
attributemeasured = "% viability"
reportedresult = "98.7%"

[[record]]
compound = "CSCC[C@@H]1CN2CCC[C@H]2CN1Cc1cn(C)nc1C"
attributemeasured = "% viability"
reportedresult = "107%"

[[record]]
compound = "O=c1[nH]nc2ccc(S(=O)(=O)N3CCCC3)cn12"
attributemeasured = "% viability"
reportedresult = "91.1%"

[[record]]
compound = "CCCC(=O)Nc1cc2ccccc2c(N2CCNCC2)n1 [CBK024608T]"
attributemeasured = "% viability"
reportedresult = "104%"

[[record]]
compound = "CC(=O)Nc1ccc(S(N)(=O)=O)c2ccccc12"
attributemeasured = "% viability"
reportedresult = "94%"

[[record]]
compound = "COc1cc(CNCc2cccnc2)cc(Br)c1OCc1ccc(Cl)cc1 [CBK074596C]"
attributemeasured = "% viability"
reportedresult = "95.5%"

[[record]]
compound = "CCCn1ncc(CN2C[C@@H]3CCCN3C[C@@H]2CCSC)c1C"
attributemeasured = "% viability"
reportedresult = "107%"

[[record]]
compound = "CC(C)(C)OC(=O)N1CCC[C@@H]1C(=O)c1cccs1"
attributemeasured = "% viability"
reportedresult = "90.7%"

[[record]]
compound = "O=C(O)CCCC(=O)N1CCN(Cc2ccc3c(c2)OCO3)CC1"
attributemeasured = "% viability"
reportedresult = "80.8%"

[[record]]
compound = "O=S(=O)(/C=C/c1ccncc1)NCc1ccc2c(c1)OCO2"
attributemeasured = "% viability"
reportedresult = "92.8%"

[[record]]
compound = "O=C1CCCc2c1nc(-c1ccccc1Cl)n2O"
attributemeasured = "% viability"
reportedresult = "82.2%"

[[record]]
compound = "Cc1cc2c(cc1C)NC(CC(=O)Nc1ccc(Cl)cc1)C(=O)N2 (centres unmarked)"
attributemeasured = "% viability"
reportedresult = "90.5%"

[[record]]
compound = "C[C@H]1CN2C[C@H](O)CC2CN1Cc1ccc(Cl)c(Cl)c1 (some centres unmarked)"
attributemeasured = "% viability"
reportedresult = "94.3%"

[[record]]
compound = "Cn1nnc2cc(NC(=O)N3CC4(C)CC3CC(C)(C)C4)ccc21 (centres unmarked)"
attributemeasured = "% viability"
reportedresult = "95.3%"

[[record]]
compound = "Cc1nnc2c(N3CCNCC3)nc3ccccc3n12"
attributemeasured = "% viability"
reportedresult = "75.4%"

[[record]]
compound = "CCCC(=O)Nc1c(C)nn(C)c1N1CCNCC1 [CBK045924T]"
attributemeasured = "% viability"
reportedresult = "102%"

[[record]]
compound = "Nc1nc2cccnc2cc1-c1cccc(OCc2ccccc2)c1"
attributemeasured = "% viability"
reportedresult = "105%"

[[record]]
compound = "Cc1ccc(S(=O)(=O)Nc2ccsc2C(=O)N2CCOCC2)cc1"
attributemeasured = "% viability"
reportedresult = "107%"

[[record]]
compound = "CCN(Cc1ccccc1)C(=O)NCc1cccc(C(F)(F)F)c1"
attributemeasured = "% viability"
reportedresult = "96.1%"

[[record]]
compound = "Cc1ccc(CN2CC3CCCN3C[C@H]2C)o1 (some centres unmarked)"
attributemeasured = "% viability"
reportedresult = "104%"

[[record]]
compound = "Nc1nc(=O)c2cnc3ccc(Cl)cc3c2s1"
attributemeasured = "% viability"
reportedresult = "79.6%"

[[record]]
compound = "CC(C)Nc1cc(Sc2ccc(Cl)c(Cl)c2)ncn1"
attributemeasured = "% viability"
reportedresult = "83.3%"

[[record]]
compound = "O=C(NCCN1CCCC1)c1cc2cc(F)ccc2[nH]1"
attributemeasured = "% viability"
reportedresult = "105%"

[[record]]
compound = "Cc1ccc(S(=O)(=O)N2CCN(c3ccc(Cl)c(Cl)c3)CC2)c(C)c1"
attributemeasured = "% viability"
reportedresult = "118%"

[[record]]
compound = "CC[C@@H](Cn1ncc2ccccc2c1=O)NC(=O)C1CC1"
attributemeasured = "% viability"
reportedresult = "91.3%"

[[record]]
compound = "O=C(NCCc1ccccc1)[C@@H]1C=CCN1C(=O)c1cccs1"
attributemeasured = "% viability"
reportedresult = "92.9%"

[[record]]
compound = "O[C@@H]1C[C@H]2CN(Cc3ccsc3)[C@@H](Cc3ccccc3)CN2C1"
attributemeasured = "% viability"
reportedresult = "95.8%"

[[record]]
compound = "O=C(CC1Nc2ccccc2NC1=O)Nc1ccccc1 (centres unmarked)"
attributemeasured = "% viability"
reportedresult = "103%"

[[record]]
compound = "C[C@H]1CN2CCCC2CN1Cc1ccc(CN(C)C)cc1 (some centres unmarked)"
attributemeasured = "% viability"
reportedresult = "101%"


====

test: in vitro; settings: human, hela cells, % viability
Listing of entries alongside the reported viability at 28.5 h, 10 µM.
attributeMeasured: viability at 28.5 h, 10 µM (%)

[[record]]
compound = "O=C(NCc1nc(-c2ccccc2)no1)C(c1cccs1)c1cccs1"
unitabbreviation = "%"
reportedresult = 109

[[record]]
compound = "Cc1cccc2c3c([nH]c12)CCN(C(=O)[C@@H]1C[C@@H]2C=C[C@H]1C2)C3"
unitabbreviation = "%"
reportedresult = 93.6

[[record]]
compound = "CCN(CC)C(=O)c1sc(NC(=O)c2cc(-c3ccncc3)nc3c(C)cccc23)c(C#N)c1C"
unitabbreviation = "%"
reportedresult = 93.6

[[record]]
compound = "Cc1cccc2c3c([nH]c12)C1(CCCN(C/C=C\\c2ccccc2)C1)N(C=O)CC3 (stereo not shown)"
unitabbreviation = "%"
reportedresult = 92.4


====

assay: in vitro; settings: human, hela cells, % viability
attributeMeasured: viability at 28.5 h, 10 µM

[[record]]
molecule = "COC(=O)c1ccc(S(N)(=O)=O)o1"
attributemeasured = "viability at 28.5 h, 10 µM"
reportedresult = "105%"

[[record]]
molecule = "O=C(NCc1ccccc1)c1cnsn1"
attributemeasured = "viability at 28.5 h, 10 µM"
reportedresult = "90.8%"

[[record]]
molecule = "Cc1ccccc1Cn1nc(C)c(NC(=O)c2nc3n(n2)C(C(F)F)CC(C)N3)c1C (stereo not drawn)"
attributemeasured = "viability at 28.5 h, 10 µM"
reportedresult = "92.6%"

[[record]]
molecule = "CC(SCC(=O)Nc1ccc(F)cc1)c1nc2ccccc2c(=O)[nH]1 (stereo not drawn)"
attributemeasured = "viability at 28.5 h, 10 µM"
reportedresult = "105%"

[[record]]
molecule = "O=C(Cc1ccc(F)cc1)Nc1nc(-c2cccs2)cs1"
attributemeasured = "viability at 28.5 h, 10 µM"
reportedresult = "82.3%"

[[record]]
molecule = "COc1ccc(CNC(=O)N2CCCCC2CO)cc1OC (stereo not drawn)"
attributemeasured = "viability at 28.5 h, 10 µM"
reportedresult = "92.8%"

[[record]]
molecule = "Cn1cc(C(O)CNC(=O)NCCc2csc3ccccc23)cn1 (stereo not drawn)"
attributemeasured = "viability at 28.5 h, 10 µM"
reportedresult = "95.2%"

[[record]]
molecule = "O=C(O)c1ccc(-n2nnnc2SCc2ccccc2)cc1"
attributemeasured = "viability at 28.5 h, 10 µM"
reportedresult = "93.6%"

[[record]]
molecule = "CCN(CC)CCN1CCN(c2cncc(-c3ccc(F)cc3F)n2)CC1"
attributemeasured = "viability at 28.5 h, 10 µM"
reportedresult = "107%"

[[record]]
molecule = "CC(C)c1cc(C(=O)N(Cc2ccccn2)CC2CCCO2)on1 (stereo not drawn)"
attributemeasured = "viability at 28.5 h, 10 µM"
reportedresult = "95.3%"

[[record]]
molecule = "CCN(CC)C(=O)CN1CCC(Oc2cncc(Oc3ccc(OC)c(OC)c3)n2)C1 (stereo not drawn)"
attributemeasured = "viability at 28.5 h, 10 µM"
reportedresult = "93.9%"

[[record]]
molecule = "CCC1(C)Cc2sc3[nH]c(=O)c(SCC(N)=O)nc3c2CO1 (stereo not drawn)"
attributemeasured = "viability at 28.5 h, 10 µM"
reportedresult = "87.3%"

[[record]]
molecule = "N#Cc1ccc(-c2cc(NCCc3ccncc3)ncn2)cc1"
attributemeasured = "viability at 28.5 h, 10 µM"
reportedresult = "98.1%"

[[record]]
molecule = "COCC1(C(=O)N2CC(=O)N(c3ccc(C)cc3)CC2C)CCC1 (stereo not drawn)"
attributemeasured = "viability at 28.5 h, 10 µM"
reportedresult = "89.1%"

[[record]]
molecule = "O[C@H]1[C@H](NCc2ccco2)[C@H]2CO[C@H](O2)[C@@H]1N1CCCCC1"
attributemeasured = "viability at 28.5 h, 10 µM"
reportedresult = "106%"

[[record]]
molecule = "CCOC(=O)c1cccnc1-c1ccc(Cl)c(Cl)c1"
attributemeasured = "viability at 28.5 h, 10 µM"
reportedresult = "92.1%"

[[record]]
molecule = "Cc1cccc2c1ncn1c(=O)n(CC(=O)Nc3cccc(Cl)c3)nc21"
attributemeasured = "viability at 28.5 h, 10 µM"
reportedresult = "81.8%"

[[record]]
molecule = "Sc1nnc(COc2ccccc2)n1/N=C/c1ccncc1"
attributemeasured = "viability at 28.5 h, 10 µM"
reportedresult = "100%"

[[record]]
molecule = "Cc1cc(C(=O)NCc2c(-c3ccccc3)noc2C)n[nH]1"
attributemeasured = "viability at 28.5 h, 10 µM"
reportedresult = "91.4%"

[[record]]
molecule = "CC1CCN(C(=O)Cn2ncn3c(cc4ccsc43)c2=O)CC1"
attributemeasured = "viability at 28.5 h, 10 µM"
reportedresult = "101%"

[[record]]
molecule = "COc1ccc(C(NC(=O)C2CC=CCC2C(=O)O)c2ccccc2)cc1 (stereo not drawn)"
attributemeasured = "viability at 28.5 h, 10 µM"
reportedresult = "91.6%"

[[record]]
molecule = "Cc1cc(C)nc(Nc2ncc(O)n2-c2ccccc2C)n1"
attributemeasured = "viability at 28.5 h, 10 µM"
reportedresult = "91.2%"

[[record]]
molecule = "CCc1nn(CC(=O)NC2CCC2)c(=O)c2cc3sc(C)cc3n12"
attributemeasured = "viability at 28.5 h, 10 µM"
reportedresult = "92.4%"

[[record]]
molecule = "O=C(c1ccccc1F)N1CCCC(c2cc3ncccc3cn2)C1 (stereo not drawn)"
attributemeasured = "viability at 28.5 h, 10 µM"
reportedresult = "83.3%"

[[record]]
molecule = "Cc1[nH]c(=O)[nH]c(=S)c1C(=O)Nc1ccc2[nH]c(C(F)(F)F)nc2c1"
attributemeasured = "viability at 28.5 h, 10 µM"
reportedresult = "95.2%"

[[record]]
molecule = "COc1cc([N+](=O)[O-])cc(CN2CCN(CCO)CC2)c1O"
attributemeasured = "viability at 28.5 h, 10 µM"
reportedresult = "92.4%"

[[record]]
molecule = "COc1ccc(-c2cncc(N3CCN(C)CC3)n2)cc1"
attributemeasured = "viability at 28.5 h, 10 µM"
reportedresult = "91.8%"

[[record]]
molecule = "COCCNc1cc(-c2ccco2)ncn1"
attributemeasured = "viability at 28.5 h, 10 µM"
reportedresult = "92.5%"

[[record]]
molecule = "C#CCNC(=O)N(C)C1CCN(c2ncnc3ccccc23)CC1"
attributemeasured = "viability at 28.5 h, 10 µM"
reportedresult = "97.6%"

[[record]]
molecule = "CN1CCC(=NNC(=O)CN(c2ccc(Oc3ccccc3)cc2)S(C)(=O)=O)CC1"
attributemeasured = "viability at 28.5 h, 10 µM"
reportedresult = "93.2%"

[[record]]
molecule = "COc1cc(OC)cc(C(=O)N2CCC3(CC2)CC(=O)c2c(OC)cc(OC)cc2O3)c1"
attributemeasured = "viability at 28.5 h, 10 µM"
reportedresult = "105%"

[[record]]
molecule = "O=C(O)CCn1cc(CN2CCOc3ccccc3C2)cn1"
attributemeasured = "viability at 28.5 h, 10 µM"
reportedresult = "101%"

[[record]]
molecule = "O=C(Cc1c[nH]c(=O)[nH]c1=O)N1CCCCC1c1nc2cc(F)ccc2[nH]1 (stereo not drawn)"
attributemeasured = "viability at 28.5 h, 10 µM"
reportedresult = "104%"

[[record]]
molecule = "COc1ccc(C)cc1S(=O)(=O)N(C)CC(=O)Nc1cccc(Cl)c1"
attributemeasured = "viability at 28.5 h, 10 µM"
reportedresult = "88.5%"

[[record]]
molecule = "Cc1c(C)n(Cc2ccco2)c2ncnc(NCCC(=O)O)c12"
attributemeasured = "viability at 28.5 h, 10 µM"
reportedresult = "86.8%"

[[record]]
molecule = "O=Cc1c(-[n+]2ccc(-c3ccncc3)cc2)nc([O-])n1-c1ccccc1"
attributemeasured = "viability at 28.5 h, 10 µM"
reportedresult = "108%"

[[record]]
molecule = "CN1CCC[C@H]1C(=O)N1CCN(C(=O)c2ccco2)CC1"
attributemeasured = "viability at 28.5 h, 10 µM"
reportedresult = "94.5%"

[[record]]
molecule = "CCCCOc1ccc(C(=O)N(C)c2cnn(C)c2)c(O)c1"
attributemeasured = "viability at 28.5 h, 10 µM"
reportedresult = "89.5%"

[[record]]
molecule = "COc1ccc(/C=N/NC(=O)c2ccc(CN3CCOCC3)cc2)cc1[N+](=O)[O-]"
attributemeasured = "viability at 28.5 h, 10 µM"
reportedresult = "93%"

